The origin of these recorded values is PubChem BioAssay AID1963853.

# Test system: 266295-075-R-J1-PDC spheroid viability;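 further: spheroids exposed to compounds for seven days before readout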
# protocol description: Anticancer human tumor 266295-075-R-J1-PDC patient-derived head and neck squamous carcinoma cell line growth inhibition [POLQ]
# applied conditions: second compound 0.1 µM; first compound 0.1 µM; stronger effect = lower value; spheroids with HUVEC and MSC
measured parameter: viability, T/C (%)
Just the number in %, nothing appended.

Study these solved cases before continuing.
[[record]]
compound = "CC1COCCN1c1cc(-c2ccnn2C)c2ccnc(-c3ccn[nH]3)c2n1 (stereo not given) + Cc1cccc(N(C)C(=O)C2C(O)CCN2c2nc(C)cc(C(F)(F)F)c2C#N)c1"
experimental_target = "266295-075-R-J1-PDC spheroid viability"
value_observed = 68.4

[[record]]
compound = "CC(C)n1c(=O)n(C)c2cnc3cc(F)c(-c4ccc(OCCCN5CCCCC5)nc4)cc3c21 + Cc1cccc(N(C)C(=O)C2C(O)CCN2c2nc(C)cc(C(F)(F)F)c2C#N)c1"
experimental_target = "266295-075-R-J1-PDC spheroid viability"
value_observed = 111

[[record]]
compound = "COc1cccc2c1C(=O)c1c(O)c3c(c(O)c1C2=O)CC(O)(C(=O)CO)CC3OC1CC(N)C(O)C(C)O1 (stereo not given) + COC1C(OC(N)=O)C(O)C(Oc2ccc3c(O)c(NC(=O)c4ccc(O)c(CC=C(C)C)c4)c(=O)oc3c2C)OC1(C)C"
experimental_target = "266295-075-R-J1-PDC spheroid viability"
value_observed = 96

[[record]]
compound = "COc1cc2cc(C(=O)CCC(=O)O)sc2cc1OC + Nc1ccc(C#CCN(C(=O)Cc2ncc(C(F)(F)F)cc2C(F)(F)F)c2ccc(F)cc2)nn1"
experimental_target = "266295-075-R-J1-PDC spheroid viability"
value_observed = 87.7


[ask] Field request: viability, T/C | item: COc1ccc([C@@H](O)c2cc(-c3ncnc4cc(N5CCOCC5)ccc34)c(F)cc2Cl)nn1 + COC1C(OC(N)=O)C(O)C(Oc2ccc3c(O)c(NC(=O)c4ccc(O)c(CC=C(C)C)c4)c(=O)oc3c2C)OC1(C)C
[reply] 105
